test: yeast display, Sf9 membrane polyspecificity reagent, FACS + sequencing; frameworks hold sequencing errors
measured-metric: polyreactivity (PSR sort gate)

{"sequence-code": "QVQLVESGGGLVQAGGSLRLSCAASGSTFWYNAMGWYRQAPGKERELVASITLSGARTYYADSVKGRFTISRDNAKNTVYLQMNSLKPEDTAVYYCAKRTGRVKYYYWGQGTQVTVSS", "reported": "high polyreactivity"}
{"sequence-code": "QVQLVESGGGLVQAGGSLRLSCAASGSIFAGNAMGWYRQAPGKEREFVAAITWSGGSTYYADSVKGRFTISRDNAKNTVYLQMNSLKPEDTAVYYCAARAYKRKTYYYWGQGTQVTVSS", "reported": "high polyreactivity"}
{"sequence-code": "QVQLVESGRGLVQAGGSLRLSCAASGSIFTTNAMGWYRQAPGKERELVAAISKSGASTYYADSVKGRVTISRDNAKNTVYLQMNSLKPEDTAVYYCAAGLRYTGRFRFYYWGQGTQVTVSS", "reported": "high polyreactivity"}
